Below is a list of entries, each paired with its recorded IC50 value.
- Test target: purified HLA-DR DRB1*1501 (human)
- Assay comment: competition with 125I-labelled reference peptide, purified HLA
Field format: number, assumed nM, no unit text.

{"columns": ["Binder", "IC50 (nM)"],
 "data": [
  ["ESAVLRGFLILGKED (modifications not checked) [Flu.PB2.690]", 39]
]}

Let us examine a further case.
[ask] For the binder LIQLIVSGRDEQSIA (modifications not checked) [Flu.PB2.384] , report IC50.
[reply] 420
